target: SMARCA2 (Homo sapiens, UniProt P51531); construct: endogenous in cells; assay: SMARCA2 HiBiT degradation assay (cellular); assay type: cell-based; settings: SMARCA2 HiBiT cells, luminescence readout, 11-point titration from 10 μM, 6 hours or 16 hours; read-out: HiBit A549 SMARCA2 IP
Sequence (P51531 whole entry): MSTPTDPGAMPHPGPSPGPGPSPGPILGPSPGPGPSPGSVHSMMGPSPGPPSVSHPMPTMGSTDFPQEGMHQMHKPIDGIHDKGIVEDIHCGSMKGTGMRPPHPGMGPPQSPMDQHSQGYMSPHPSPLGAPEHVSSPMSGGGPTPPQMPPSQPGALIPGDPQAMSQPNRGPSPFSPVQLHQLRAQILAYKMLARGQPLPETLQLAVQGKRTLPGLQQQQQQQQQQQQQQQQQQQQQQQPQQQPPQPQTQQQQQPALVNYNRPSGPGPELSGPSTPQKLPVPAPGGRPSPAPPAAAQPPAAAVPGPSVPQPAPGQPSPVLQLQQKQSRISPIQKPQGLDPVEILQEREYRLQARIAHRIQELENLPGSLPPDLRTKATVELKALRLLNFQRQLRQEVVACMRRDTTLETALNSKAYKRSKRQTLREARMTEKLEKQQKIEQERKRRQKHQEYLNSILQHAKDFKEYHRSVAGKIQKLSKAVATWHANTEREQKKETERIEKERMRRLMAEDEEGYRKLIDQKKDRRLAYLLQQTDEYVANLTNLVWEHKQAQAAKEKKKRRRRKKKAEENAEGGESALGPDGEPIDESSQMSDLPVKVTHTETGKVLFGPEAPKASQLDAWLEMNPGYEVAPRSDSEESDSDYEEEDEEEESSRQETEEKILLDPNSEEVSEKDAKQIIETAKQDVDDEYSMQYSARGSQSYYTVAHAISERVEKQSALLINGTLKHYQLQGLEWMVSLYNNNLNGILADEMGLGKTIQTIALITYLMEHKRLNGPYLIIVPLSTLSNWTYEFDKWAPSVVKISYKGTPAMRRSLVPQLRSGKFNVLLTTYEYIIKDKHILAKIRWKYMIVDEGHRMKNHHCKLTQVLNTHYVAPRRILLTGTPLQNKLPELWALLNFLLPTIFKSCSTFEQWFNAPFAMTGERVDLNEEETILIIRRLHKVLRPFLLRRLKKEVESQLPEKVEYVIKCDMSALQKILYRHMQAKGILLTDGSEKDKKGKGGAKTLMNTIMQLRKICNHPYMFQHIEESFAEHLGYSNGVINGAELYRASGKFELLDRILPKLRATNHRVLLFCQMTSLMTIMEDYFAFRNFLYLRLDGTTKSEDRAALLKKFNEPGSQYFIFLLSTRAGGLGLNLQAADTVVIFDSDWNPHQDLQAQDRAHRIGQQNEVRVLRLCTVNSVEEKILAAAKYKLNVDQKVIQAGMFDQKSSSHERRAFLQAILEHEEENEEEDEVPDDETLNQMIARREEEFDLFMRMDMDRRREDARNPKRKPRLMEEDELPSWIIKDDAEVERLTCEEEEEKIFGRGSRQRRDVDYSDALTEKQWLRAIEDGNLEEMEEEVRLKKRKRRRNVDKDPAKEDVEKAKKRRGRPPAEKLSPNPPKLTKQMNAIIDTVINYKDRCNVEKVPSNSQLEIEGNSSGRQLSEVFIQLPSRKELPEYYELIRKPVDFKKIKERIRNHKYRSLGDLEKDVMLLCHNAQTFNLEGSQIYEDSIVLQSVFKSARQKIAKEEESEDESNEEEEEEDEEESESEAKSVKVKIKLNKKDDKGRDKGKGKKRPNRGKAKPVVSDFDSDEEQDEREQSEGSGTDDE
EXPERIMENTAL_ENDPOINT: DC50 (nM)

Worked set:
INSERT INTO assay_data (molecule, experimental_endpoint, uom, reported_result) VALUES
  ('Cc1ncsc1-c1ccc(CNC(=O)[C@@H]2C[C@@H](O)CN2C(=O)[C@@H](NC(=O)CCCCCCCCCC(=O)N2CCN(Cc3cccc(N4C5CCC4CN(c4cc(-c6ccccc6N)nnc4N)C5)c3)CC2)C(C)(C)C)cc1 [Example 102]', 'DC50', 'nM', 992),
  ('Cc1ncsc1-c1ccc(CNC(=O)[C@@H]2C[C@@H](O)CN2C(=O)C(NC(=O)CCCCCCC(=O)N2CCC3(CC2)CCN(c2cc(-c4ccccc4O)nnc2N)CC3)C(C)(C)C)cc1 (stereo in doubt) [Example 6]', 'DC50', 'nM', 2910),
  ('Cc1ncsc1-c1ccc([C@H](C)NC(=O)[C@@H]2C[C@@H](O)CN2C(=O)[C@@H](NC(=O)CCCCCC(=O)N2CCN(CCOc3cccc(N4CCCC(Oc5cc(-c6ccccc6O)nnc5N)C4)c3)CC2)C(C)(C)C)cc1 (mixture of isomers) [Example 70]', 'DC50', 'nM', 1180),
  ('Cc1ncsc1-c1ccc(CNC(=O)[C@@H]2C[C@@H](O)CN2C(=O)[C@@H](NC(=O)CCCCCCCN2CCN(C(=O)CN(C)Cc3ccc(-c4cc(-c5ccccc5O)nnc4N)cc3)CC2)C(C)(C)C)cc1 [Example 87]', 'DC50', 'nM', 1300),
  ('Cc1ncsc1-c1ccc(CNC(=O)[C@@H]2C[C@@H](O)CN2C(=O)[C@@H](NC(=O)CCCCCCCCC(=O)N2CCN(CCOc3cccc(N4CCOC5(CCN(c6cc(-c7ccccc7O)nnc6N)CC5)C4)c3)CC2)C(C)(C)C)cc1 [Example 52]', 'DC50', 'nM', 533);

[A] Cc1ncsc1-c1ccc(CNC(=O)[C@@H]2C[C@@H](O)CN2C(=O)[C@@H](NC(=O)CCCCCCCCC(=O)N2CC(Oc3cc(-c4ccccc4O)nnc3N)CC(c3ccccc3)C2)C(C)(C)C)cc1 (mixture of isomers) [Example 67]
[B] Cc1ncsc1-c1ccc([C@H](C)NC(=O)[C@@H]2C[C@@H](O)CN2C(=O)[C@@H](NC(=O)CCCCCCCCC(=O)N2CCN(Cc3cccc(OC4CN(c5cc(-c6ccccc6O)nnc5N)C4)c3)CC2)C(C)(C)C)cc1 [Example 86]
Task: Higher DC50: A or B ? Please indicate the selected item by its label.
Result: A

[P] Cc1ncsc1-c1ccc(CNC(=O)[C@@H]2C[C@@H](O)CN2C(=O)[C@@H](NC(=O)CCCCCC(=O)NC(COc2cc(-c3ccccc3O)nnc2N)c2ccccc2)C(C)(C)C)cc1 (mixture of isomers) [Example 62]
[Q] Cc1ncsc1-c1ccc([C@H](C)NC(=O)[C@@H]2C[C@@H](O)CN2C(=O)[C@@H](NC(=O)CCCCCCCCCCCCC(=O)N2CCOC3(CCN(c4cc(-c5ccccc5O)nnc4N)CC3)C2)C(C)(C)C)cc1 [Example 45]
Task: Hi! Which is lower in terms of DC50, the first one P or the second one Q ? In your reply, give the label of the chosen option.
Result: Q
